Tested on: OVCAR-8 ovarian
Experiment: NCI-60 one-dose screen, 48 h
Conditions: 10 µM unless noted
About 83,000 compounds went through this panel and 20% of them were active in at least one assay; those are over-represented in the sample as a whole. The source made the active and inactive calls. The calls were made as follows: active = growth percent below 10; inactive = the rest.
Respond with a class label; see yes (1) for active, no (0) for inactive

Q: Give the logged outcome of this assay for the following compound: "COc1cc(-c2nc(NC(C)=O)sc2-c2ccnc(NCCNS(=O)(=O)c3ccccc3)n2)ccc1Cl"
Ans: no (0)

Q: Give the logged outcome of this assay for the following compound: "Cc1c2cnccc2c(C)c2c1c1cc(C3OCCCO3)ccc1n2C"
Ans: yes (1)

Q: Give the logged outcome of this assay for the following compound: "Nc1c(C(=O)Nc2cccc3ncccc23)sc2nc3c(cc12)C(=O)CCC3"
Ans: no (0)

Q: Give the logged outcome of this assay for the following compound: "CN1CCCc2cc(/C=C3/SC(=S)N(CCc4ccc(O)cc4)C3=O)ccc21"
Ans: no (0)

Q: Give the logged outcome of this assay for the following compound: O=C1OCC2=C1C(c1cccc(C(F)(F)F)c1)c1cc3c(cc1N2CCO)OCO3 (stereo not given)
Ans: no (0)

Q: Give the logged outcome of this assay for the following compound: "CCCCCCCCn1ccc2cc(NC(=O)Cn3cc(CN4CCC(C)CC4)nn3)ccc21"
Ans: no (0)

Q: Give the logged outcome of this assay for the following compound: "CCn1cc(CNc2ccc(C(=O)Nc3cc4cc(OC)c(OC)cc4c(C)n3)cc2)c(C)n1"
Ans: yes (1)

Q: Give the logged outcome of this assay for the following compound: "O=C(CCCCCCCCC(=O)N/N=C\c1cc(Cl)ccc1O)N/N=C\c1cc(Cl)ccc1O"
Ans: no (0)

Q: Give the logged outcome of this assay for the following compound: "COc1cccc(OC)c1Oc1c(-c2nc3ccccc3s2)c(C)nn1-c1ccccc1"
Ans: no (0)

Q: Give the logged outcome of this assay for the following compound: O=C(O)C1CN(c2cccc(Cl)c2)N(c2cccc(Cl)c2)C1=O (stereo not given)
Ans: no (0)

----------
Tested on: NCI-H322M lung
Test: NCI-60 one-dose screen, 48 h (100 = growth as untreated, 0 = no growth, -100 = all killed)
Details: 10 µM unless noted
About 83,000 compounds went through this panel and 20% of them were active in at least one assay; those are over-represented in the sample as a whole.
Exercise: for every item that follows, state its recorded growth.
Numbers only; they are read as %.

Q: What value of growth has been recorded for this entry: "CCCCCSB(SCCCCC)c1ccccc1"
Ans: 103

Q: What value of growth has been recorded for this entry: COC(=O)C1=C(C(=O)Nc2cccnc2)C2OC1(C(Cc1ccccc1)Oc1ccccc1)C1OC21 (stereo not given)
Ans: 98.4

Q: What value of growth has been recorded for this entry: "COc1ccc(OC)c(Nc2nnc(-c3ccc(Cl)cc3)o2)c1"
Ans: 56.9

Q: What value of growth has been recorded for this entry: "Cc1nc2sc(C(=O)Nc3ccccc3)c(N)c2cc1C(=O)/C=C/c1ccccc1"
Ans: 10.7

Q: What value of growth has been recorded for this entry: "Cc1cc2nc3c4ccccc4n(CCN(C)C)c3nc2cc1C"
Ans: 0.121

Q: What value of growth has been recorded for this entry: "CC(C)CCSc1nc(Nc2ccccc2)c(C#N)c(-c2ccccc2)n1"
Ans: 34.3

Q: What value of growth has been recorded for this entry: "COc1ccc2nc3cc(Cl)ccc3c(NCCN)c2c1"
Ans: -46

Q: What value of growth has been recorded for this entry: CCN1C(=O)N(CC)C2C1NN=c1s/c(=C3\C(=O)N(CCc4ccccc4)c4ccccc43)c(=O)n12 (stereo not given)
Ans: 36.1

Q: What value of growth has been recorded for this entry: "COc1ccc(-c2cc(-c3ccc(OC)cc3)nc(NCCCNc3ccnc4cc(Cl)ccc34)n2)cc1"
Ans: 98.4

Q: What value of growth has been recorded for this entry: "COc1ccc(/C=C/C(=O)c2ccc(NC(=O)CSc3nnc(-c4cc(-c5ccccc5)nc5ccccc45)n3-c3ccccc3)cc2)cc1"
Ans: 99.6

----------
Test system: HS 578T breast
Assay: NCI-60 one-dose screen, 48 h (100 = growth as untreated, 0 = no growth, -100 = all killed)
Conditions: 10 µM unless noted
This is part of a sample that, as a whole, favours compounds with a hit. Of some 83,000 tested, about 20% had one in any assay.
PROPERTY: growth (%)
Numbers only; they are read as %.

Q: What value of growth has been recorded for this entry: "CCCCCCOC(=O)CC1=C(C)/C(=C/c2[nH]c(-c3ccc[nH]3)cc2OC)N=C1C"
Ans: -27

Q: What value of growth has been recorded for this entry: CC1O[C@@H]2C[C@@](O)([C@H]1O)n1c3ccccc3c3c4c(c5c6ccccc6n2c5c31)C(=O)NC4=O (some centres not stated)
Ans: 82.6

Q: What value of growth has been recorded for this entry: "COc1cc2ncnc(Nc3ccc(F)c(Cl)c3)c2cc1OCC(=O)N1CCN(c2ccc(F)cc2)CC1"
Ans: 89.3

Q: What value of growth has been recorded for this entry: "Cc1ccc2[nH]c(-c3ccc(S(C)(=O)=O)cc3)c(/C=N/N=C(N)N)c2c1"
Ans: 50.5

Q: What value of growth has been recorded for this entry: "CC(=O)c1cc(-c2ccccc2N)n(-c2ccc3c(c2)OCO3)c1C"
Ans: 32.6

Q: What value of growth has been recorded for this entry: Cc1ccc2[nH]c(=O)c3c(c2c1)OC(N)=C(C#N)C31C(=O)c2cccc3cccc1c23 (configuration not stated)
Ans: 93.9

Q: What value of growth has been recorded for this entry: Nc1ncnc2c1c(-c1ccc(Oc3ccccc3)cc1)nn2CC1SSCC1O (configuration not stated)
Ans: 66.7

Q: What value of growth has been recorded for this entry: "COc1ncc2cc1NS(=O)(=O)c1cccc(c1)C(=O)NCC1=CC=C(S1)c1ncnc3c1SC2=C3C"
Ans: 12.7

Q: What value of growth has been recorded for this entry: "S=c1[nH]c2cc(Cl)ccc2o1"
Ans: 88.6

Q: What value of growth has been recorded for this entry: "COc1cc(-c2nc3ccc(C)cc3[nH]2)ccc1OCC(=O)N=Nc1c(O)[nH]c2ccc(Cl)cc12"
Ans: -22.3

Q: What value of growth has been recorded for this entry: "Cc1ccc(N=Nc2c(N)nn(-c3ccccc3)c2N)cc1"
Ans: 36.1

Q: What value of growth has been recorded for this entry: "O=C(Nc1nc(C(=O)N2CCN(C(c3ccccc3)c3ccccc3)CC2)cs1)c1ccc(NC2CCCCC2)c([N+](=O)[O-])c1"
Ans: 90.2

Q: What value of growth has been recorded for this entry: "C[C@@H]1CC[C@@]2(OC1)O[C@H]1C[C@H]3[C@@H]4CC=C5C[C@@H](O[C@@H]6O[C@H](CO)[C@@H](O[C@@H]7O[C@@H](CO)[C@H](O)[C@H]7O)[C@H](O)[C@H]6O[C@@H]6O[C@@H](C)[C@H](O)[C@@H](O)[C@H]6O)CC[C@]5(C)[C@H]4CC[C@]3(C)[C@H]1[C@@H]2C"
Ans: -47.9

Q: What value of growth has been recorded for this entry: "CC1(C)CC2=C3C=C[C@@H]4[C@@]5(C)CC[C@H](O)C(C)(C)[C@@H]5CC[C@@]4(C)[C@]3(C)CC[C@@]2(C(=O)O)CC1=O"
Ans: 73

Q: What value of growth has been recorded for this entry: COC(c1ccc2ccccc2c1)C(C)C(F)F (configuration not stated)
Ans: 116

Q: What value of growth has been recorded for this entry: "OC(c1ccccc1)(c1ccccc1)c1ccccc1-c1ccccc1"
Ans: 94.2

Q: What value of growth has been recorded for this entry: "CCNC(=O)Oc1ccc(/C(=C(/C)Cc2ccc(OC)cc2)c2ccc(OCCN3CCCC3)cc2)cc1"
Ans: 70.9

----------
Test system: 786-0 renal
Assay: NCI-60 one-dose screen, 48 h (100 = growth as untreated, 0 = no growth, -100 = all killed)
Settings: 10 µM unless noted
This is part of a sample that, as a whole, favours compounds with a hit. Of some 83,000 tested, about 20% had one in any assay.
PROPERTY: growth (%)
Numbers only; they are read as %.

Q: For 786-0 renal, provide growth of "Cc1ccccc1OCC(O)COc1ccccc1C" please.
Ans: 100

Q: For 786-0 renal, provide growth of "CCOC(=O)c1c2c(n3ccccc13)C(=O)c1ncccc1C2=O" please.
Ans: 2.37

Q: For 786-0 renal, provide growth of "O=C(CCCCCCCCC(=O)N/N=C\c1cc(Cl)ccc1O)N/N=C\c1cc(Cl)ccc1O" please.
Ans: 16.3

Q: For 786-0 renal, provide growth of "CCN(CC)c1ccc(/C=C\c2cc(C)c3cc(C)ccc3n2)cc1" please.
Ans: 2.99

Q: For 786-0 renal, provide growth of "Cc1cc(F)ccc1S(=O)(=O)Nc1cc(-c2c(O)ccc3ccccc23)c(O)c2ccccc12" please.
Ans: 76.2

Q: For 786-0 renal, provide growth of "COc1cc2cc(Oc3ccc(NC(=O)Nc4ccccc4)cc3)c(C)nc2cc1OCCN1CCCCC1" please.
Ans: 68.3

Q: For 786-0 renal, provide growth of "COC1=CC(c2ccc[nH]2)=N/C1=C\c1[nH]c(C)c(CC(=O)OCc2ccccc2)c1C" please.
Ans: -23.7

Q: For 786-0 renal, provide growth of "O=C(/C=C/c1cccc(Cl)c1)c1cccc(OCCCCOc2cccc(C(=O)/C=C/c3cccc(Cl)c3)c2)c1" please.
Ans: 98.8

Q: For 786-0 renal, provide growth of "Cc1ccc2[nH]c(-c3ccc(S(C)(=O)=O)cc3)c(/C=N/N=C(N)N)c2c1" please.
Ans: 44.9

Q: For 786-0 renal, provide growth of "CC/C=C\C/C=C/C=C1/C(=O)C=C[C@@H]1C/C=C\CCCC(=O)OC" please.
Ans: -15

Reference source: PubChem BioAssay (NCI)
